# Tested on: HUT_102
# EXPERIMENT_NOTES: CellTiter-Blue Cell Viability Assay
# Assay type: cell-based
# EXPERIMENTAL_CONDITIONS: Homo sapiens, HuT-102; cell line HUT_102 (HUT102), Lymphoma - CTCL; read-out: IC50 (μM) (Cell Titre-Blue assay)
EXPERIMENTAL_ENDPOINT: IC50 (µM)

| COMPOUND | EXPERIMENTAL_TARGET | UNIT_ABBREV | VALUE_REPORTED |
| --- | --- | --- | --- |
| O=C(CCCCCCC(=O)Nc1ccccc1)NO [vorinostat, suberoylanilide hydroxamic acid] | HUT_102 | µM | 0.83 |

###

# Test system: SU_DHL_4
# EXPERIMENT_NOTES: CellTiter-Blue Cell Viability Assay
# Format: cell-based
# EXPERIMENTAL_CONDITIONS: Homo sapiens, SU-DHL-4; cell line SU_DHL_4, Lymphoma DLBCL; read-out: IC50 (μM) (Cell Titre-Blue assay)
EXPERIMENTAL_ENDPOINT: IC50 (µM)

| COMPOUND | UNIT_ABBREV | VALUE_REPORTED |
| --- | --- | --- |
| O=C(CCCCCCC(=O)Nc1ccccc1)NO [vorinostat, suberoylanilide hydroxamic acid] | µM | 1.88 |
